Attribution: ChEMBL document CHEMBL1155326

test system: Nucleic Acid; assay: Binding affinity to human telomeric G4 DNA of sequence 5'-FAM-d(GGG[TTAGGG]3)-TAMRA-3' assessed as change in melting temperature by FRET DNA melting assay; type: nucleic-acid assay; note: test concentration or dose not given here
reported-metric: ΔTm (°C)

Record excerpt, results attached:
- smiles: "O=C(CCN1CCCCC1)Nc1ccc(NC(=O)c2cccc3c(=O)c4cccc(C(=O)Nc5ccc(NC(=O)CCN6CCCCC6)cc5)c4[nH]c23)cc1"
  ΔTm [°C]: 31
- smiles: "O=C(CCCN1CCCC1)Nc1ccc(NC(=O)c2cccc3c(=O)c4cccc(C(=O)Nc5ccc(NC(=O)CCCN6CCCC6)cc5)c4[nH]c23)cc1"
  ΔTm [°C]: 15
- smiles: "CN1CCN(CCC(=O)Nc2ccc(NC(=O)c3cccc4c(=O)c5cccc(C(=O)Nc6ccc(NC(=O)CCN7CCN(C)CC7)cc6)c5[nH]c34)cc2)CC1"
  ΔTm [°C]: 31
- smiles: "O=C(Nc1ccc(NCCCN2CCCC2)cc1)c1cccc2c(=O)c3cccc(C(=O)Nc4ccc(NCCCN5CCCC5)cc4)c3[nH]c12"
  ΔTm [°C]: 33
- smiles: "CN1CCN(CCCNc2ccc(NC(=O)c3cccc4c(=O)c5cccc(C(=O)Nc6ccc(NCCCN7CCN(C)CC7)cc6)c5[nH]c34)cc2)CC1"
  ΔTm [°C]: 28

(a) O=C(Nc1ccc(NCCCN2CCOCC2)cc1)c1cccc2c(=O)c3cccc(C(=O)Nc4ccc(NCCCN5CCOCC5)cc4)c3[nH]c12
(b) O=C(CCN1CCCC1)Nc1cccc(NC(=O)c2cccc3c(=O)c4cccc(C(=O)Nc5cccc(NC(=O)CCN6CCCC6)c5)c4[nH]c23)c1
(c) O=C(CCC(=O)N1CCCC1)Nc1ccc(NC(=O)c2cccc3c(=O)c4cccc(C(=O)Nc5ccc(NC(=O)CCC(=O)N6CCCC6)cc5)c4[nH]c23)cc1
(d) O=C(CCN1CCCC1)Nc1ccc(NC(=O)c2cccc3c(=O)c4ccccc4[nH]c23)cc1
(e) CN(C)CCCNC(=O)c1cccc2c(=O)c3cccc(C(=O)NCCCN(C)C)c3[nH]c12
Sort (5 compounds) by ΔTm: min first. Record the ranking as a list of labels in the requested order.
c, e, d, a, b
